// values below are reported Fibril
Type: physicochemical
Design: key: 1 = fibrils present; 0 non-fibrillar structures
particulars: Fig S10 panel E
Please reply with the value in numeric form only.

Use these answered entries as a reference point.
CKIKQIINM; 1
KIKIKIKIWW; 0
CKIKQIINMWQ; 1
CRFRFQF; 1
KIKIQIC; 1
RGEKIKIQINM; 1

Give Fibril for the following substance: CKAKAQANMWQ
0

====

Known Number of aggregates in 3 * (1330 µm *1330 µm) of a selection of substances
method_notes: Aggregate analysis by widefield fluorescence microscopy
Format: physicochemical
particulars: Fig S8 panels A, C; 3 fields of 1330 µm x 1330 µm
Respond with the number and no other words.

For orientation, consider the following solved cases.
KIKQIIN [JGA3]; 11.67
CKFKQFF [CK15]; 5.667
KFKFQFNMWQ [JG4]; 64
CKFKQFFNM [CK14]; 704
CKWKWQW [KB4]; 87
QCKIKQIINMWQ [reference compound]; 408
CKIKQIINMWQ [MG5a / CK17]; 194.7
CKFKFQFW [TM72]; 517

Check the records and state Number of aggregates in 3 * (1330 µm *1330 µm) for QCKIKIQINMWQ [EF-C opt]
398

Read the entry KIKIQIC [TM112 / CN11] and write its reported Number of aggregates in 3 * (1330 µm *1330 µm).
81.67

Given the substance CKIKQII [MG4a] , write its reported Number of aggregates in 3 * (1330 µm *1330 µm).
75.67

For the substance RGDSGGGGGGKIKIQIC [TM114 / RC17] , report Number of aggregates in 3 * (1330 µm *1330 µm).
72

Kindly indicate its recorded Number of aggregates in 3 * (1330 µm *1330 µm). Item: CKFKFQFNM [BL3]
170.3

====

Type: physicochemical
particulars: ThT fluorescence relative to blank, blank = 42.1851851851852
Just a reminder that ties go to 0: only Tht rel to blank (42.1851851851852) strictly below 5 counts as 1.

KFKQFFINMWQ [VH14]; 1
RLRLTLC [CN13]; 1
RGDKIKIQINM [MG8a / CN17]; 0

State whether 5 exceeds Tht rel to blank (42.1851851851852) recorded for KLKQLL [KM27 / psis14] .
1

====

method_notes: Turbidity, derived count rate of scattered light
Type: physicochemical
particulars: category 1 or 0 derived from the count rate; key not given
measurement_name: Zeta Count Rate Category
// return just the number, without any unit appended

HHHHKIKIKIKIYYYY [TM6]; 1
KIKIKIKIYYYY [JR7]; 1
KLKLQLL [TG4 / (KM2)]; 0

Return reported Zeta Count Rate Category. Input substance: KFKFQFW [TM71]
1

Give me measured Zeta Count Rate Category, please, for this substance: CKIKIQI [MG3b]
1

Determine from records and report Zeta Count Rate Category for KLKQLL [KM27 / psis14]
1

State its Zeta Count Rate Category: QCKFKQFFNM [CK11]
1

Complete the entry with Zeta Count Rate Category for KIKIQIC [TM112 / CN11]
1

Please look at this substance and report its Zeta Count Rate Category: CKFKQFF [CK15]
0

Identify the reported Zeta Count Rate Category for the following entry. QCKFKQFF [CK12]
1

Please give the documented Zeta Count Rate Category of CEFEFQFNMWQ [TM140]
1

Using the record for CKFKFQFW [TM72] , state its measured Zeta Count Rate Category.
1

Give recorded Zeta Count Rate Category. CKFKQFFNM [CK14]
1

====

Type: physicochemical
particulars: FigS12 panel A
measurement_name: Tht category (> 2 to blank = +)

Below: 4 substances and their reported Tht category (> 2 to blank = +).
KFKFQFN; 0 (ThT-inactive (N-Fold <2))
NMWQKAKAQA; 1 (ThT. Cat is 1, if Rel. ThT >2)
PPFHPPPFHP; 0 (ThT-inactive (N-Fold <2))
KWKWQW; 0 (ThT-inactive (N-Fold <2))

Consider the substance CETMYDKILKNLSRSR . State its measured Tht category (> 2 to blank = +).
0 (ThT-inactive (N-Fold <2))

Report Tht category (> 2 to blank = +) for TKTLTKTL
0 (ThT-inactive (N-Fold <2))

Annotate the substance CKAKAQANMWQ with its measured Tht category (> 2 to blank = +).
0 (ThT-inactive (N-Fold <2))

Please look at this substance and report its Tht category (> 2 to blank = +): KAKAKAQA
0 (ThT-inactive (N-Fold <2))

Answer with reported Tht category (> 2 to blank = +) of CKIKQII
1 (ThT. Cat is 1, if Rel. ThT >2)

State, in one line, measured Tht category (> 2 to blank = +) of CRFRVPF
0 (ThT-inactive (N-Fold <2))

Please report the measured Tht category (> 2 to blank = +) for KVKVQVVV
0 (ThT-inactive (N-Fold <2))

Kindly indicate its recorded Tht category (> 2 to blank = +). Item: CEFEFQF
0 (ThT-inactive (N-Fold <2))

Specify Tht category (> 2 to blank = +) for QCKIKQII and stop.
1 (ThT. Cat is 1, if Rel. ThT >2)

Answer with the recorded Tht category (> 2 to blank = +) for the substance listed here: KVKVQVV
0 (ThT-inactive (N-Fold <2))

Please supply the value of reported Tht category (> 2 to blank = +) for the item NMWQKVGTPL
1 (ThT. Cat is 1, if Rel. ThT >2)

Look up and state reported Tht category (> 2 to blank = +) for KIKIQI
0 (ThT-inactive (N-Fold <2))

Supply recorded Tht category (> 2 to blank = +) for HHHHKAKAKAKAYYYY here.
0 (ThT-inactive (N-Fold <2))

Tell me its Tht category (> 2 to blank = +) given CHLHLQL as the entry.
1 (ThT. Cat is 1, if Rel. ThT >2)

Please list Tht category (> 2 to blank = +) recorded for the substance KIRGKFEKED
1 (ThT. Cat is 1, if Rel. ThT >2)

Tell me Tht category (> 2 to blank = +) reported for KLKLKLQL
0 (ThT-inactive (N-Fold <2))

Respond only with Tht category (> 2 to blank = +) recorded for KIKQIIN
0 (ThT-inactive (N-Fold <2))

====

Recorded Zeta-Potential / mV, one value per entry.
method_notes: Zeta-potential measurement
Format: physicochemical
particulars: zeta-potential of the peptide assemblies; mean; Figure 3A source data
Lab book: enter the figure in mV, no units written.

Completed entries (count: 6):
CSISIQINM; -19.4
KFKFQFF; 6.9
SISISRRI; -17
KFKFQFFF; 13.27
CKFKQFFNMWQ; 8.56
KIKIQINMWQ; 14.87

Let me know recorded Zeta-Potential / mV for QCKFKQFFNMWQ , thanks.
9.59

# return recorded Zeta-Potential / mV for input KFKFQFN
12.7

State, in one line, measured Zeta-Potential / mV of HGEHGEHGE
-24.2

Query Zeta-Potential / mV for CKIKQIINM
12.9

State its Zeta-Potential / mV for this substance: CKAKAQANM
-7.77

====

method_notes: Conversion rate (CR) assay with fluorescamine
Type: physicochemical
particulars: Fig. S7 panel B; conversion rate, fluorescamine assay
Hi! Just check whether CR / % is below 90%. Below gives y, equal or above gives n.

CEFEFQFNMWQ; n
KIKIKIQI; y
KAKAQANMWQ; y
QCKFKFQFNMWQ; n
RGDKIRGDKI; y
CKIKQIINM; y

Item QCKIKIQINMWQ : CR / % beneath 90%, strictly?
n

Criterion: CR / % strictly below 90%. Is it met by QCKIKQIINMWQ [reference compound] ?
y

A record lists CKIKIQI . Is its CR / % below 90%?
y

Lab note: CR / % threshold 90%. Does this substance come in strictly under it? KIKIQIC
y

====

Format: physicochemical
particulars: relative to blank 42.1851851851852 a.u.
measurement_name: Tht rel to blank (42.1851851851852)
In your answer, state the number alone without any accompanying words.

MKFKFQF [DF5 / CK16]; 0.9846

Look up and state reported Tht rel to blank (42.1851851851852) for CEIEIQI [AR2/ TM142]
2.23

Find the measured Tht rel to blank (42.1851851851852) of KIKIQII [TG1 / (KM4)] and report it.
1.392

Read off the recorded Tht rel to blank (42.1851851851852) for CKAKAQANM [BL9]
1.249

Indicate the recorded Tht rel to blank (42.1851851851852) value for this substance: QCKFKFQFNMWQ [CK7]
1.854

Using known records, supply Tht rel to blank (42.1851851851852) for KFKFQFN [BL7]
1.056

Data origin: paper PMC10447463
